Entry source: paper PMC5729930

STUDY_TARGET: A3AR (Homo sapiens)
Construct: expressed in transfected cells
PROTOCOL_NOTES: Competition radioligand binding, hA3AR ([125I]I-AB-MECA)
CONDITION_SUMMARY: read-out: affinity for the hA3AR
QUANTITY_NAME: Ki
Write down the value, and be sure its unit follows.

Kindly note the recorded Ki for NCCCCNC(=O)COc1ccc(CCCn2ncc3c2nc(N)n2nc(-c4ccco4)nc32)cc1 , which is 6 µM

---

# inhibition at 10 µM annotations
STUDY_TARGET: A3AR (Homo sapiens, UniProt P0DMS8)
Construct: expressed in transfected cells
Sequence (P0DMS8 whole entry): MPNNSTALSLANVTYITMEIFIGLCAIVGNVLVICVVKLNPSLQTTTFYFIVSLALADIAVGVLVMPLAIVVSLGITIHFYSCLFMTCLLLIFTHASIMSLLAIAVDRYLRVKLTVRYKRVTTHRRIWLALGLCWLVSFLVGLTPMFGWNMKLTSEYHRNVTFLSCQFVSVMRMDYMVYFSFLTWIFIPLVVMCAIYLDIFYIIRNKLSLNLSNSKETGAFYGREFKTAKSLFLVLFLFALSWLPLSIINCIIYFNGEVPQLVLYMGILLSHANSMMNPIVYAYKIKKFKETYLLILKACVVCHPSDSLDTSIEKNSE
PROTOCOL_NOTES: Competition radioligand binding, hA3AR ([125I]I-AB-MECA)
CONDITION_SUMMARY: percent inhibition at 10 μM, [125I]I-AB-MECA 0.2 nM, read-out: % inhib, A3
Write down the value, and be sure its unit follows.

Consider the following illustrative entries.
CC1(C)C(/C=C/C=C/C=C2/N(CCCS(=O)(=O)O)c3ccc(S(=O)(=O)O)cc3C2(C)CCCCCC(=O)NCCCCNC(=O)COc2ccc(CCCn3ncc4c3nc(N)n3nc(-c5ccco5)nc43)cc2)=[N+](CCCS(=O)(=O)O)c2ccc(S(=O)(=O)[O-])cc21 (stereo not shown) | 21%
CCN(CC)CC.CCN(CC)CC.N=c1ccc2c(-c3ccc(C(=O)NCCCCNC(=O)COc4ccc(CCCn5ncc6c5nc(N)n5nc(-c7ccco7)nc65)cc4)cc3C(=O)O)c3ccc(N)c(S(=O)(=O)O)c3oc-2c1S(=O)(=O)O | 32%
CC1(C)C(/C=C/C=C/C=C2/N(CCCS(=O)(=O)O)c3ccc(S(=O)(=O)O)cc3C2(C)CCCCCC(=O)NCCNC(=O)COc2ccc(CCCn3ncc4c3nc(N)n3nc(-c5ccco5)nc43)cc2)=[N+](CCCS(=O)(=O)O)c2ccc(S(=O)(=O)[O-])cc21 (stereo not shown) | 21%

Here's the next entry for you.
Kindly note the recorded inhibition at 10 µM for Nc1nc2c(cnn2CCCc2ccc(OCC(=O)NCCCCNC(=O)CCCCCNC(=O)COc3ccc(/C=C/C4=[N+]5C(=Cc6ccc(-c7cccs7)n6[B-]5(F)F)C=C4)cc3)cc2)c2nc(-c3ccco3)nn12 , which is 33%
